This collection of values is drawn from PubChem BioAssay AID1645865.

- TGT: Ubiquitin carboxyl-terminal hydrolase 30 (Homo sapiens) (UniProt Q70CQ3)
- Sequence (Q70CQ3 whole entry, looked up): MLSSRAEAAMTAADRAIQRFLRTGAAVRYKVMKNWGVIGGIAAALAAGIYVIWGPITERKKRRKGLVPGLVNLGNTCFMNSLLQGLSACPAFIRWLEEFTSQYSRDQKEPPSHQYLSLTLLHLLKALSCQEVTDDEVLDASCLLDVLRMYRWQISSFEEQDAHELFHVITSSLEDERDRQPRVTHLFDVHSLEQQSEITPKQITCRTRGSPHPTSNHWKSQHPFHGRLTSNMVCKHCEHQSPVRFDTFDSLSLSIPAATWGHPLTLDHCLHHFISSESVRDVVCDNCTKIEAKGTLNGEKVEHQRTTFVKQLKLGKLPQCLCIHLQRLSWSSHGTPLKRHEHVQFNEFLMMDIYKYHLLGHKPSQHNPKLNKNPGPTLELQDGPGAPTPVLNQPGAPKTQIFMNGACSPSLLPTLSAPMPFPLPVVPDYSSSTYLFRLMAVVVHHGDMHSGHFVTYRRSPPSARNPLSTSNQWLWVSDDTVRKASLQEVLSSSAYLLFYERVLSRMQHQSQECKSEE
- PROCEDURE_DETAILS: inhibitors of ubiquitin-specific protease 30 deubiquitylating enzyme, concentration dependence, in vitro biochemical, validation of primary hits (AID 1645865)
- COND: purified USP30, Ub-rhodamine cleavage, fluorescence, 2 h
The source made the active and inactive calls.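 Rule for the calls: active = maximal inhibition of the USP30 enzyme reaching 30% or more across the dose series; inactive = the rest.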
Labels: active, inactive

| COMPOUND | TGT | QUALITATIVE_LABEL |
| --- | --- | --- |
| COc1cccc2c1OCC(NS(=O)(=O)c1cc(C)ccc1C)C2 (stereo unspecified) | Ubiquitin carboxyl-terminal hydrolase 30 (Homo sapiens) (UniProt Q70CQ3) | inactive |
| O=C(c1ccco1)N1CCN=C1SCc1ccccc1F | Ubiquitin carboxyl-terminal hydrolase 30 (Homo sapiens) (UniProt Q70CQ3) | inactive |
| COc1cccc2c1OCC(C(=O)NCc1ccc(F)cc1)=C2 | Ubiquitin carboxyl-terminal hydrolase 30 (Homo sapiens) (UniProt Q70CQ3) | inactive |
| O=C(Cn1c(=O)n(CCCC(=O)N2CC=C(c3ccccc3)CC2)c(=O)c2ccccc21)NCCC1=CCCCC1 | Ubiquitin carboxyl-terminal hydrolase 30 (Homo sapiens) (UniProt Q70CQ3) | inactive |
| CCOC(=O)c1cccc(NC(=O)Nc2cccn3nc(C)nc23)c1 | Ubiquitin carboxyl-terminal hydrolase 30 (Homo sapiens) (UniProt Q70CQ3) | inactive |
| O=C(NC1(O)C(=O)c2ccccc2C1=O)c1ccc(-c2csnn2)cc1 | Ubiquitin carboxyl-terminal hydrolase 30 (Homo sapiens) (UniProt Q70CQ3) | active |
| CC(C)C1Cc2c(sc3nc(SCC(=O)Nc4cccc5ccccc45)nc(N)c23)CO1 (stereo unspecified) | Ubiquitin carboxyl-terminal hydrolase 30 (Homo sapiens) (UniProt Q70CQ3) | inactive |
| Cc1nc(-c2noc3ccc(C(=O)Nc4cccnc4)cc23)cs1 | Ubiquitin carboxyl-terminal hydrolase 30 (Homo sapiens) (UniProt Q70CQ3) | active |
| Cc1ccc(NC(=O)c2nnn(-c3ccccc3Br)c2C)cc1C | Ubiquitin carboxyl-terminal hydrolase 30 (Homo sapiens) (UniProt Q70CQ3) | inactive |
| Cc1ccc(CN2CCCn3nc(C(=O)NCc4ccccc4C)cc3C2=O)cc1 | Ubiquitin carboxyl-terminal hydrolase 30 (Homo sapiens) (UniProt Q70CQ3) | active |
| Cc1ccc(-n2cc3c(N4CCCC(C(=O)NCC5CCCCC5)C4)ncnc3n2)cc1 (stereo unspecified) | Ubiquitin carboxyl-terminal hydrolase 30 (Homo sapiens) (UniProt Q70CQ3) | active |

###

- TGT: Ubiquitin carboxyl-terminal hydrolase 30 (Homo sapiens)
- PROCEDURE_DETAILS: inhibitors of ubiquitin-specific protease 30 deubiquitylating enzyme, concentration dependence, in vitro biochemical, validation of primary hits (AID 1645865)
- COND: purified USP30, Ub-rhodamine cleavage, fluorescence, 2 h
Calls of active or inactive are those of the source.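 The calls were made as follows: active = maximal inhibition of the USP30 enzyme reaching 30% or more across the dose series; inactive = the rest.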
Labels: 1 (yes) (active), 0 (no) (inactive)

| COMPOUND | QUALITATIVE_LABEL |
| --- | --- |
| CCc1ccc(-n2nc(C)c3c2NC(=O)CC3C(=O)c2ccc3c(c2)OCCO3)cc1 (centres undefined) | 1 (yes) |
| CC(CCc1ccccc1)NC(=O)Cn1c(=O)c2cccn2c2ccccc21 (centres undefined) | 1 (yes) |
| CCOC(=O)Nc1ccc(N2CCn3c(nc4ccccc43)C2)cc1OC | 0 (no) |
| C=C1CCC2[C@](C)(CCC[C@]2(C)C(=O)OC)[C@H]1CCc1ccoc1C[N+](C)(C)Cc1ccccc1 (some centres undefined) | 1 (yes) |
| CC(C)Cc1nc2sc3c(NCc4ccccc4)ncnc3c2c2c1COC(C)(C)C2 | 1 (yes) |
| O=C(NCc1ccc(-c2nc3cnccc3o2)cc1)c1ccccc1F | 1 (yes) |
| CCOc1ccc(CCNC(=O)c2ccc3c(c2)N(CC)C(=O)c2ccccc2S3)cc1OCC | 0 (no) |
| N#Cc1cc2c(nc1SCC(=O)NCc1ccccc1)CCCC2 | 0 (no) |
| O=C(NC1CCS(=O)(=O)C1)c1ccc(N2CCC(Cc3ccccc3)CC2)nn1 (centres undefined) | 0 (no) |
| COc1ccc(/C=C/C(=O)Nc2cccc(S(=O)(=O)Nc3ccccc3Cl)c2)c(OC)c1 | 1 (yes) |
| COc1ccc(C(=O)Nc2cc3c4c(c2)C(C)C(=O)N4CCC3)cc1 (centres undefined) | 0 (no) |
| COc1cc(C#N)c(NC(=NCc2ccc(F)cc2)SC)cc1OC | 1 (yes) |
| CCCCc1ccc(-c2cc(C(=O)NCCN3CCOCC3)c3cc(Br)ccc3n2)cc1 | 1 (yes) |
| Cc1nc2cc(NC(=O)C3CN(C(=O)c4cnccn4)C3)ccc2s1 | 0 (no) |
| Cc1cc(N2CCC(NC(=O)NCc3ccc(F)cc3)C2=O)ccc1F (centres undefined) | 1 (yes) |
| Cc1cccc(C(=O)N2CCN3Cc4ccccc4N(C)CC3C2)c1 (centres undefined) | 0 (no) |
| O=C(COc1cccc(-n2cnnn2)c1)Nc1ccc2c(c1)OCCO2 | 0 (no) |
| COc1ccc(CCNC(=O)c2cn(-c3ccc(F)cc3)nn2)cc1OC | 1 (yes) |
| COc1ccc(NC(=O)CSc2nnc(Cc3cccc4ccccc34)n2C)cc1 | 0 (no) |
| O=C(Cn1c(NCc2ccccc2)nc2ccccc21)NCC(F)(F)F | 1 (yes) |
| O=C(NCc1ccc2c(c1)OCO2)c1ccc(C2SCC(=O)N2Cc2ccco2)cc1 (centres undefined) | 0 (no) |
| c1coc(CNc2nc3ccccc3n3nnnc23)c1 | 0 (no) |
| O=[N+]([O-])c1cccc(-c2noc(CSc3ccccc3)n2)c1 | 1 (yes) |
| O=C(CSc1nnc(Cn2cnc3ccccc32)o1)Nc1ccc([N+](=O)[O-])cc1 | 1 (yes) |
| O=C(Cn1cc(C(=O)C(F)(F)F)c2ccccc21)N1CCc2ccccc21 | 1 (yes) |
| O=C(NCc1ccc(F)cc1)N1CCC2(C1)Nc1cccnc1NC2=NCc1ccccc1 (centres undefined) | 0 (no) |
| CC1OC2CC(O)C1(O)C1=C2C(O)=C(C(N)=O)C(=N)C1=O (centres undefined) | 0 (no) |
| Cc1c(C(=O)NCc2cccc(Br)c2)oc2c1-c1[nH]ncc1CC2 | 0 (no) |
| Cc1cc(NC(=O)COc2ccc3oc4ccccc4c3c2)no1 | 0 (no) |
| Cc1ccc(NC(=O)c2c3c(nc4ccccc24)CCCCC3)c(C)c1 | 0 (no) |
| O=C(COc1nc2ccccc2nc1N1CCOCC1)Nc1cccc(S(=O)(=O)N2CCCCC2)c1 | 0 (no) |
| O=C(c1ccc2ncccc2c1)N1CCC2(C1)Nc1cccnc1NC2=NC1CCCC1 (centres undefined) | 0 (no) |
| Cn1nc(-c2nc(-c3ccccc3)no2)c2c1CCN(C(=O)C1CC1)C2 | 0 (no) |
| Cc1ccc(C(=O)NCC(=O)Nc2nc3ccccc3[nH]2)c(C)c1 | 1 (yes) |
| O=C(c1ccc(Cl)cc1)c1c[nH]cc1-c1c(F)cccc1Cl | 1 (yes) |
| Cc1ccccc1C(=O)c1ccc(C(=O)NC2CCCCCC2)[nH]1 | 1 (yes) |
| C=C1CCC2[C@](C)(CCC[C@]2(C)C(=O)OC)[C@H]1CCc1ccoc1CNC(C)C (some centres undefined) | 0 (no) |
| c1cnc(-c2n[nH]c(C3CCN(C4CCNC4)CC3)n2)cn1 (centres undefined) | 0 (no) |
| O=C(Nc1ccc2c(c1)OCCO2)C1CCN(C(=O)c2ccccc2)CC1 | 0 (no) |
| COc1ccc(CN=C2NS(=O)(=O)C(c3ccc(F)cc3)=C2C)cc1OC | 1 (yes) |
| O=C(OCc1ccc(Br)cc1)c1ccc2ccccc2n1 | 0 (no) |
| Cc1ccc(C2c3cccn3CCN2C(=O)Nc2ccccc2)cc1 (centres undefined) | 0 (no) |
| O=C(NC1CCCCC1)c1cc2c(cn1)[nH]c1ccccc12 | 0 (no) |
| Cc1ccc(CNC(=O)c2cnc3ccccc3n2)cc1 | 0 (no) |
